Origin of the recorded values: patent US20210017275A1

- TARGET UNDER TEST: T1, human Siglec-5 expressed on human primary cells (human, UniProt O15389 17-551)
- T1 construct: Endogenous receptor on human primary monocytes, dendritic cells, macrophages and neutrophils; also called CD170
- T1 sequence: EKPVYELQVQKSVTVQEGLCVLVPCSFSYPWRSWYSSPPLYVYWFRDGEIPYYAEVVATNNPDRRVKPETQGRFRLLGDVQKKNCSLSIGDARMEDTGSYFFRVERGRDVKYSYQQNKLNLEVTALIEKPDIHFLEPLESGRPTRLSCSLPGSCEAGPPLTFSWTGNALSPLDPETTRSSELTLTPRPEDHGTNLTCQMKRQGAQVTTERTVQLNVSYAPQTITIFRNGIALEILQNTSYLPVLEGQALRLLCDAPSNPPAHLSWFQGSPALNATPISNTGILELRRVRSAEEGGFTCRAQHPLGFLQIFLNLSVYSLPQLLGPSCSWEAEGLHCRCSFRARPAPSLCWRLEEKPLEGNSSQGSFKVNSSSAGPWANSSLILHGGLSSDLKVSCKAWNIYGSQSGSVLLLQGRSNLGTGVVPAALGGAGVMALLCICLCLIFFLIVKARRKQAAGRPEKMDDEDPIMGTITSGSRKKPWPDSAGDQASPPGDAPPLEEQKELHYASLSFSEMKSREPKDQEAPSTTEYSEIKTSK
- ASSAY TEXT: flow cytometry, human primary macrophages, 10 ug/ml mAb
Hi there, I'd appreciate the recorded MFI for every entry that follows.
// return just the number, without any unit appended

For reference, reported MFI for anti-Siglec-5 monoclonal antibody 5H2 (antibody, IgG1, V domains shown) VH: EVQLQQSGPELVKPGASVKVSCKASGYSFTDYNMYWVKQSHGKSLEWIGYIDPYNGGTSYNQKFKGKATLTVDKSSSTAFMLLNSLTSEDSAVYYCALYYDYDGIPYWGQGTLVTVSA VL: DIVMTQSQKFMSTSVGDRVSVTCKASQNVGTNVAWYRQKPGQSPKALIYSASYRYNGVPDRFTGSGSGTDFTLTISNVQSEDLAEYFCQQYNSYPYTFGGGTKLEIK stands at 537

For reference, reported MFI for anti-Siglec-5 monoclonal antibody 10F9 (antibody, IgG1, V domains shown) VH: EIQLQQSGPELVKPGASVKVSCKASGYSFTGYNMYWVKQSHGKSFEWIGYIDPYTGGTSYNQRFKGKATLTVDKSSSTAFMHLNSLTSEDSAIYYCALFYDYDGFPYWGQGTLVTVSA VL: DIVMTQSQKFMSTSVGDRVSVTCKASQNVDTNVAWYQQKPGQSPKALIYSASYRYSGVPDRFTGSGSGTDFTLTISNVQSEDLAEYFCQQYNSYPYTFGGGTKLEIK stands at 562
